Sequence of the target: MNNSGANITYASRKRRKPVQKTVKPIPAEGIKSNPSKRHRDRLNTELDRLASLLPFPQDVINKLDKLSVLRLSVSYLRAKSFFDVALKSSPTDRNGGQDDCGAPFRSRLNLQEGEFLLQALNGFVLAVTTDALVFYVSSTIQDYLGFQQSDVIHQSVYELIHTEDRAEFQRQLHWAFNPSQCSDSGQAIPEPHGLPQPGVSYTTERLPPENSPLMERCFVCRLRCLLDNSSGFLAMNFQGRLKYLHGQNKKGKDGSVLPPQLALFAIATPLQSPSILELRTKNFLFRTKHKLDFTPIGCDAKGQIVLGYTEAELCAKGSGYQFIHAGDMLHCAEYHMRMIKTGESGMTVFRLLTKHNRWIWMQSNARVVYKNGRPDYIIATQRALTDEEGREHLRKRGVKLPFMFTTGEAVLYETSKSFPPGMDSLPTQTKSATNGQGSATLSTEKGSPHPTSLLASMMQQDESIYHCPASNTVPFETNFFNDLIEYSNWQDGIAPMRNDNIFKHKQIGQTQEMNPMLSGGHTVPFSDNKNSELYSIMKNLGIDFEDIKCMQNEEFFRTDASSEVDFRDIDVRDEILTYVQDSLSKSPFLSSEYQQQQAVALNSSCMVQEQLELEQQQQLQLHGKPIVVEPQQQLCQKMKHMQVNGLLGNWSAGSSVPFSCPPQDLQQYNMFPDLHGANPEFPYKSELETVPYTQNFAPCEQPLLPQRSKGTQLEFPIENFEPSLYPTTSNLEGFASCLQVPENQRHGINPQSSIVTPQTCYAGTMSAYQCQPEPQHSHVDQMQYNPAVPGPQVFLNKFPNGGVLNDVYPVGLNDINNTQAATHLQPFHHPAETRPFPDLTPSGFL
READOUT_LABEL: EC50 (nM)
One number for each entry, in nM.

SMILES_REPRESENTATION	UNITS_SYMBOL	EC50
O=C(c1c[nH]c2ccccc12)c1nccc2c1[nH]c1ccccc12	nM	4.3

Please turn your attention to the following entry.
Data request: Item O=Cc1c(Cc2c[nH]c3ccccc23)[nH]c2ccccc12 has what recorded EC50?
Data returned: 276

---

# TEST_TARGET: AhR (Cavia porcellus, UniProt Q6J287)
READOUT_LABEL: EC50 (nM)
Give bare numbers, in nM.

# batch size: 3; output EC50 per entry
1. Clc1cc2c(cc1Cl)Oc1cc(Cl)c(Cl)cc1O2 [TCDD, 2,3,7,8-tetrachlorodibenzo-p-dioxin, reference compound]
2. O=C1Nc2ccccc2/C1=C1/Nc2ccccc2C1=O
3. O=C1c2ccccc2-n2c1nc1ccccc1c2=O

Data returned:
[0.1, 0.95, 181]

---

Would you kindly list EC50 for each of these compounds?
# TEST_TARGET: AhR (Rattus norvegicus, UniProt P41738)
# Sequence (P41738 10-853): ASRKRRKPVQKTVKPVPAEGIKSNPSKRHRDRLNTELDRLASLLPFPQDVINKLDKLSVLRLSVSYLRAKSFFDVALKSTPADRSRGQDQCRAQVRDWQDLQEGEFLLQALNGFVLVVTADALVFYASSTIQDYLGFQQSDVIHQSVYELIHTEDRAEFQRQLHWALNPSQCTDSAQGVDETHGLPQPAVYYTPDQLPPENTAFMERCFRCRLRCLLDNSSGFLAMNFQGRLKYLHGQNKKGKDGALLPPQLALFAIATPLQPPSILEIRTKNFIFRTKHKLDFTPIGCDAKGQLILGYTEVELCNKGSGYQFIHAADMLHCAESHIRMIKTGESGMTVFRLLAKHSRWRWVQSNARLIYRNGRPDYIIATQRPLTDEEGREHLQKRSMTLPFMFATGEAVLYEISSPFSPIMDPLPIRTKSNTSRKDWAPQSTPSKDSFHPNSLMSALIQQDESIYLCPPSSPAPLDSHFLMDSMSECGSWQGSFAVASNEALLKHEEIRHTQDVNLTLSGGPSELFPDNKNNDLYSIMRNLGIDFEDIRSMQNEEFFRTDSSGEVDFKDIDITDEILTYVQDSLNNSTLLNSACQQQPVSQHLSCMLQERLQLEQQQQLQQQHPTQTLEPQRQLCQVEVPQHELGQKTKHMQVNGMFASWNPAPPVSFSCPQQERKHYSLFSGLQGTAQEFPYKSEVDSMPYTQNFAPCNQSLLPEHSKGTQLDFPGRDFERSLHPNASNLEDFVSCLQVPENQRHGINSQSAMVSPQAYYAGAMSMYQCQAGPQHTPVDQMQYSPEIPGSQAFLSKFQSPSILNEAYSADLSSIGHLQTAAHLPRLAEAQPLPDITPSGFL
# PROCEDURE_TEXT: AhR-dependent luciferase reporter gene assay, rat hepatoma H4L7.5c2

Some compounds with known EC50 results, for comparison:
COMPOUND	EC50
O=C1c2ccccc2-n2c1nc1ccccc1c2=O	946 nM
O=Cc1c2[nH]c3ccccc3c2cc2[nH]c3ccccc3c12 [FICZ, 6-formyl-indolo[3,2-b]carbazole]	0.078 nM
O=C1Nc2ccccc2/C1=C1/Nc2ccccc2C1=O	0.94 nM

Next item in the queue.
Data request: Give its EC50 value. Item: Clc1cc2c(cc1Cl)Oc1cc(Cl)c(Cl)cc1O2 [TCDD, 2,3,7,8-tetrachlorodibenzo-p-dioxin, reference compound]
Data returned: 0.1 nM

---

Can you tell me EC50 for the items I'm about to list?
Target protein (sequence): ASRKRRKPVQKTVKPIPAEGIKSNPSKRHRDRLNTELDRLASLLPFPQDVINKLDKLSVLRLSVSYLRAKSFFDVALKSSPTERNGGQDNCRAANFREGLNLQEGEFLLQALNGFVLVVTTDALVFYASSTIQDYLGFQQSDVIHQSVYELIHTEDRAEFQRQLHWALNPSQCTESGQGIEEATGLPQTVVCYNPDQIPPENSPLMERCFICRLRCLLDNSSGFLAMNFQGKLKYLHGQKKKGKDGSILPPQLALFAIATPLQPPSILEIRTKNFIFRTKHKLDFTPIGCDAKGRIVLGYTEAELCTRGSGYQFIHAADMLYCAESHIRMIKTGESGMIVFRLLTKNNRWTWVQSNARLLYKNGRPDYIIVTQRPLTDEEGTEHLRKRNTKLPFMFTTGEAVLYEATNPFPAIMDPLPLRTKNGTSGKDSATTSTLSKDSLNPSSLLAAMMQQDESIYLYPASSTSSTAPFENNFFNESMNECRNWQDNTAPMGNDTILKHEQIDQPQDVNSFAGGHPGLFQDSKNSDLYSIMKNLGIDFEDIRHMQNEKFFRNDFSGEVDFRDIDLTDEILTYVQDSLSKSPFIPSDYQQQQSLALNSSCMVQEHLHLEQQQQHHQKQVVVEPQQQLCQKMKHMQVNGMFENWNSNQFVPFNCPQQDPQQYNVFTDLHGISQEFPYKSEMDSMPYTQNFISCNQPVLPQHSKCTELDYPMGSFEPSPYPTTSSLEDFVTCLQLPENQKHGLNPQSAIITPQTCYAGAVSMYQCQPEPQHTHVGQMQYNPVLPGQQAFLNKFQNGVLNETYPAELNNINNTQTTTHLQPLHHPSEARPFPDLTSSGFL
Numbers only, in nM.

SMILES_REPRESENTATION	READOUT_LABEL	UNITS_SYMBOL	RECORDED_VALUE
O=C(c1c[nH]c2ccccc12)c1nccc2c1[nH]c1ccccc12	EC50	nM	4.9

Now take the following compound into account.
Data request: Look up EC50: O=Cc1c(Cc2c[nH]c3ccccc23)[nH]c2ccccc12
Data returned: 11.1

---

# TEST_TARGET: UniProt:P35869
# PROCEDURE_TEXT: AhR-dependent luciferase reporter gene assay, human hepatoma HG2L7.5c1
READOUT_LABEL: pEC50
Give bare numbers, as −log10 of the molar value.

Data request: Would you mind telling me what pEC50 value was observed for Clc1cc2c(cc1Cl)Oc1cc(Cl)c(Cl)cc1O2 [TCDD, 2,3,7,8-tetrachlorodibenzo-p-dioxin, reference compound] ?
Data returned: 9.28

Source: paper PMC4454357
